Biological target: Solute carrier family 2, facilitated glucose transporter member 1 (Homo sapiens) (UniProt P11166)
Sequence (P11166 whole entry): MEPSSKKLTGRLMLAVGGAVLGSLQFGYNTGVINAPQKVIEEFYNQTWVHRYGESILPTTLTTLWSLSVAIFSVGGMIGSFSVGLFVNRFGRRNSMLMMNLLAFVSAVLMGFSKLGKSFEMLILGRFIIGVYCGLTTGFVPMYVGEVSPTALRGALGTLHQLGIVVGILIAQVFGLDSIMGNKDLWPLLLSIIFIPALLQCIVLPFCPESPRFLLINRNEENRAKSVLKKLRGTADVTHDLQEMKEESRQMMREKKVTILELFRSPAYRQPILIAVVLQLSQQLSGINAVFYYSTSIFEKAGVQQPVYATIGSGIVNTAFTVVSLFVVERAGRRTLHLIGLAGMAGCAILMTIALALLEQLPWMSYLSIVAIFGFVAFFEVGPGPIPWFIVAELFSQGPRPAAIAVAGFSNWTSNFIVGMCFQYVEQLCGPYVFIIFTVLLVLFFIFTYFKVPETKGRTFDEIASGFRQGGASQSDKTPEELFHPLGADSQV
Experiment: ST_JUDE_LEISH: Cytotoxicity at 2uM final concentration against transgenic Leishmania Mexicana promastigotes LmGLUT1 that are glucose transport deficient and complemented with the human glucose transporter GLUT1. Activity is measured by DNA content using SYBR green in vitro
Type: functional
Quick reference for inhibition among some compounds
measurement-name: inhibition (%)

{"columns": ["compound", "measured-value"],
 "data": [
  ["CN(C)S(=O)(=O)c1ccc(C(=O)N(c2nc(-c3ccccc3)cs2)C2CCCCC2)cc1", 3.2],
  ["CCCC(C)Nc1nc(C)cc(NCCC(=O)Nc2ccc(OC)cc2)n1 (stereo not given)", 1.95],
  ["COc1ccc(-c2cc3ncn(CC(=O)N4CCN(c5cccc(OC)c5)CC4)c(=O)c3s2)cc1", 2.19],
  ["Cc1cc(NC(=O)c2cccs2)ccc1OC1CCN(Cc2ccc(C#N)cc2)CC1", -0.77],
  ["Cc1nc(C)c(-c2ccc(C(=O)c3ccc(Cl)cc3)cc2)c(O)c1Br", 1.02],
  ["Cc1c(-c2cccc(NC(=O)C(C)(C)Oc3ccc(Cl)cc3)c2)nc2ncccn12", -0.94],
  ["COc1cc(N)c(Cl)cc1C(=O)NCC1CCN(c2nc(C)cc(C)n2)CC1", 1.37],
  ["CCN(CC)CCCC(C)Nc1c2ccc(Cl)cc2nc2ccc(OC)cc12 (stereo not given)", 5.81],
  ["COc1ccc2cc(C=NNc3nc4ccccc4[nH]3)c(Cl)nc2c1", -0.3],
  ["O=C(Nc1ccc(Cl)cc1)c1ccc(CN2CCCN(Cc3ccccc3)CC2)cc1", 1.68],
  ["Cn1c2ccccc2c2c3ccccc3c(CNC(CO)(CO)CO)cc21", 13.8],
  ["COc1ccc(CC2(c3ccc(F)cc3)N=C(N)N(CCCc3ccc(F)c(F)c3)C2=O)cc1 (stereo not given)", 2.06],
  ["COc1ccc(C2CCN(CCCCNC(=O)c3ccc(NC(=O)c4ccc(Cl)cc4)cc3)CC2)c(OC)c1", 6.64],
  ["Cc1c(Cn2nc(Cl)c(N3CCNCC3)cc2=O)cccc1NC(=O)Nc1ccc(-c2ccccc2)cc1", -2.62],
  ["COc1cccc(-c2[nH]c3ccccc3c2CN2CCC(c3c(C)cccc3C)CC2)c1", 2.03],
  ["O=C(N/C=N/c1cc([N+](=O)[O-])c(-c2cccnc2)n1-c1ccc(O)cc1)c1ccccc1", -0.13],
  ["Clc1ccc(OCc2ccccc2)c(-c2nc(-c3nc4ncc(Br)cc4[nH]3)cs2)c1", 4.08],
  ["CS(=O)(=O)c1cccc(-c2cnc(N)c3cc(-c4ccc(F)cc4)ccc23)c1", 2.85],
  ["Cc1ccc(C2(CN3CCC(NC(=O)c4n[nH]cc4Cl)CC3)CCCCC2)cc1", -1.34],
  ["FC(F)(F)c1ccc(COc2cc(Cl)ccc2Cn2ccnc2)cc1", 14]
]}

====

Target: Glucose transporter (Leishmania mexicana)
Assay: ST_JUDE_LEISH: Cytotoxicity at 2uM final concentration against transgenic Leishmania Mexicana promastigotes LmGT2 that are glucose transport deficient and complemented with the L. Mexicana glucose transporter 2. Activity is measured by DNA content using SYBR green in vitro
Type: functional
measurement-name: inhibition (%)

{"columns": ["compound", "measured-value"],
 "data": [
  ["CCN(CC)Cc1cc(Nc2ccnc3cc(Cl)ccc23)ccc1O", 4.65],
  ["CCn1c(-c2nonc2N)nc2c(-c3cccc(NC(=O)Nc4cccc(C#N)c4)c3)ncc(OCCCN)c21", 2.66],
  ["Cc1cc(=NN=Cc2ccc(F)cc2)c2ccc(F)cc2[nH]1", -0.46],
  ["O=C(/C=C/C=C/c1ccccc1)NCCCCCN1CCC(c2c[nH]c3ccccc23)CC1", 1.69],
  ["CN1CCC(Oc2ccc(CN3CC[C@H](NC(=O)c4ccc(Cl)c(Cl)c4)C3)c3ccccc23)C1 (some centres undefined)", 3.37],
  ["FC(F)(F)c1ccc(/C=C/c2cncnc2Nc2ccc3[nH]c(Cc4ccccc4)nc3c2)cc1", 3.94],
  ["COc1ccc(CNC2CCCC2)cc1-c1ccc(S(=O)(=O)NCCN2CCCC2)s1", 3.68],
  ["CCn1c(C2CCN(CCC3CCN(C(=O)/C=C/c4ccc(Cl)c(Cl)c4)CC3)CC2)nc2ccccc21", 0.66],
  ["Cc1cc(N2CCCN(CC3CCCCC3)CC2)nc(Nc2ccc(Br)cc2)n1", -2.12]
]}
